Measured values drawn from patent US11583516B2 for this set.

Below is a list of entries, each paired with its recorded IC50 value.
Tested on: HL-60 cells
Test: Cell line drug sensitivity (CellTiter-Glo)
Type: cell-based
Conditions: HL-60, AML M2; 48 h; read-out: IC50

- cpd_smiles: "CC(C)[C@H](N)C(=O)N1CCC[C@H]1B(O)O"
  subject_of_test: "HL-60 cells"
  IC50 [nM]: 115
- cpd_smiles: "CC(C)(C)[C@H](N)C(=O)N1CCC[C@H]1B(O)O"
  subject_of_test: "HL-60 cells"
  IC50 [nM]: 16

----------
Test system: Kasumi-1 cells
Test: Cell line drug sensitivity (CellTiter-Glo)
Type: cell-based
Conditions: Homo sapiens, Kasumi 1, 48 h
Procedure: SET-2, RS4;11, and SKM-1 cells were purchased from DSMZ. HL-60, MV4;11, OCI-AML2, NB4, MOLM-13, NOMO-1, DAOY, HEL, IMR-5, K562, Kasumi-1, ONS-76, RDES-1, and TC-71 cells were a gift from Alex Kentsis and verified using STR genotyping (Genetica). […] Cells were plated (2000 cells/well) in white, 384-well clear bottom plates using an EL406 Microplate Washer/Dispenser (BioTek) in 25 μL final volume of media. […] Luminescence was then read using a Cytation 5 Cell Imaging Multi-Mode Reader (BioTek). […]
recorded_endpoint: IC50

- molecule: "N[C@H](C(=O)N1CCC[C@H]1B(O)O)C12CC3CC(CC(C3)C1)C2 (relative stereo)"
  recorded_endpoint: "IC50"
  endpoint_result: "> 60 µM"
- molecule: "CC1([C@H](N)C(=O)N2CCC[C@H]2B(O)O)CCCCC1 (relative stereo) [ARI-4175CH]"
  recorded_endpoint: "IC50"
  endpoint_result: "> 60 µM"

----------
Below is a list of entries, each paired with its recorded pIC50 value.
Test system: RDES-1 cells
Experiment: Cell line drug sensitivity (CellTiter-Glo)
Format: cell-based
Settings: RDES-1, Ewing's sarcoma; 48 h; read-out: IC50
pIC50: −log10 of the molar value.
recorded_endpoint: pIC50

- compound: "CC(C)[C@H](N)C(=O)N1CCC[C@H]1B(O)O [ARI-2054, Valine-boroProline]"
  recorded_endpoint: "pIC50"
  endpoint_result: "< 4.22"
- compound: "CC(C)(C)[C@H](N)C(=O)N1CCC[C@H]1B(O)O [ARI-4175, t-butylglycine-boroProline]"
  recorded_endpoint: "pIC50"
  endpoint_result: "< 4.22"

----------
Below is a list of entries, each paired with its recorded pIC50 value.
Test system: KG-1 cells
Assay: Cell line drug sensitivity (CellTiter-Glo)
Type: cell-based
Conditions: Homo sapiens, KG-1, 48 h
Experimental: SET-2, RS4;11, and SKM-1 cells were purchased from DSMZ. HL-60, MV4;11, OCI-AML2, NB4, MOLM-13, NOMO-1, DAOY, HEL, IMR-5, K562, Kasumi-1, ONS-76, RDES-1, and TC-71 cells were a gift from Alex Kentsis and verified using STR genotyping (Genetica). […] Cells were plated (2000 cells/well) in white, 384-well clear bottom plates using an EL406 Microplate Washer/Dispenser (BioTek) in 25 μL final volume of media. […] Luminescence was then read using a Cytation 5 Cell Imaging Multi-Mode Reader (BioTek). […]
pIC50: −log10 of the molar value.

- molecule: "N[C@H](C(=O)N1CCC[C@H]1B(O)O)C12CC3CC(CC(C3)C1)C2 (relative stereo)"
  pIC50: 8.30
- molecule: "CC1([C@H](N)C(=O)N2CCC[C@H]2B(O)O)CCCCC1 (relative stereo) [ARI-4175CH]"
  pIC50: 7.31

----------
Below is a list of entries, each paired with its recorded pIC50 value.
System: TC-71 cells
Assay: Cell line drug sensitivity (CellTiter-Glo)
Assay type: cell-based
Conditions: TC-71, Ewing's sarcoma; 48 h; read-out: IC50
pIC50: −log10 of the molar value.

- cpd_smiles: "CC(C)[C@H](N)C(=O)N1CCC[C@H]1B(O)O"
  pIC50: "< 4.22"
- cpd_smiles: "CC(C)(C)[C@H](N)C(=O)N1CCC[C@H]1B(O)O"
  pIC50: "< 4.22"

----------
Tested on: THP-1 cells
Assay: Cell line drug sensitivity (CellTiter-Glo)
Format: cell-based
Conditions: THP-1, AML M5; 48 h; read-out: IC50
Method: SET-2, RS4;11, and SKM-1 cells were purchased from DSMZ. HL-60, MV4;11, OCI-AML2, NB4, MOLM-13, NOMO-1, DAOY, HEL, IMR-5, K562, Kasumi-1, ONS-76, RDES-1, and TC-71 cells were a gift from Alex Kentsis and verified using STR genotyping (Genetica). […] Cells were plated (2000 cells/well) in white, 384-well clear bottom plates using an EL406 Microplate Washer/Dispenser (BioTek) in 25 μL final volume of media. […] Luminescence was then read using a Cytation 5 Cell Imaging Multi-Mode Reader (BioTek). […]
Below is a list of entries, each paired with its recorded IC50 value.

- cpd_smiles: "CC(C)[C@H](N)C(=O)N1CCC[C@H]1B(O)O"
  subject_of_test: "THP-1 cells"
  IC50, nM: 206
- cpd_smiles: "CC(C)(C)[C@H](N)C(=O)N1CCC[C@H]1B(O)O"
  subject_of_test: "THP-1 cells"
  IC50, nM: 23

----------
Below is a list of entries, each paired with its recorded pIC50 value.
Tested on: TC-71 cells
Experiment: Cell line drug sensitivity (CellTiter-Glo)
Format: cell-based
Conditions: TC-71, 48 h
pIC50: −log10 of the molar value.
recorded_endpoint: pIC50

- molecule: "N[C@H](C(=O)N1CCC[C@H]1B(O)O)C12CC3CC(CC(C3)C1)C2 (relative stereo)"
  recorded_endpoint: "pIC50"
  endpoint_result: "< 4.22"
- molecule: "CC1([C@H](N)C(=O)N2CCC[C@H]2B(O)O)CCCCC1 (relative stereo) [ARI-4175CH]"
  recorded_endpoint: "pIC50"
  endpoint_result: "< 4.22"

----------
Test system: RAW 264.7 WT cells
Assay: Pyroptosis IC50 in cells
Type: cell-based

- molecule: "CC(C)[C@H](N)C(=O)N1CCC[C@H]1B(O)O [ARI-2054, Valine-boroProline]"
  IC50 (nM): 98

----------
Below is a list of entries, each paired with its recorded IC50 value.
Tested on: NB4 cells
Assay: Cell line drug sensitivity (CellTiter-Glo)
Assay type: cell-based
Settings: Homo sapiens, NB-4, 48 h

- compound: "N[C@H](C(=O)N1CCC[C@H]1B(O)O)C12CC3CC(CC(C3)C1)C2 (relative stereo)"
  u: "nM"
  IC50: 3
- compound: "CC1([C@H](N)C(=O)N2CCC[C@H]2B(O)O)CCCCC1 (relative stereo) [ARI-4175CH]"
  u: "nM"
  IC50: 3

----------
Below is a list of entries, each paired with its recorded pIC50 value.
Test system: MCF7 cells
Assay: Cell line drug sensitivity (CellTiter-Glo)
Format: cell-based
Settings: MCF7, Breast; 48 h; read-out: IC50
pIC50: −log10 of the molar value.
recorded_endpoint: pIC50

- compound: "CC(C)(C)[C@H](N)C(=O)N1CCC[C@H]1B(O)O [ARI-4175, t-butylglycine-boroProline]"
  subject_of_test: "MCF7 cells"
  recorded_endpoint: "pIC50"
  endpoint_result: "< 4.22"
- compound: "CC(C)[C@H](N)C(=O)N1CCC[C@H]1B(O)O [ARI-2054, Valine-boroProline]"
  subject_of_test: "MCF7 cells"
  recorded_endpoint: "pIC50"
  endpoint_result: "< 4.22"

----------
Below is a list of entries, each paired with its recorded IC50 value.
Tested on: HT-1080 cells
Assay: Cell line drug sensitivity (CellTiter-Glo)
Format: cell-based
Settings: Homo sapiens, HT-1080, 48 h

- compound: "CC1([C@H](N)C(=O)N2CCC[C@H]2B(O)O)CCCCC1 (relative stereo) [ARI-4175CH]"
  IC50: "> 60 µM"
- compound: "N[C@H](C(=O)N1CCC[C@H]1B(O)O)C12CC3CC(CC(C3)C1)C2 (relative stereo)"
  IC50: "> 60 µM"

----------
System: KG-1 cells
Test: Cell line drug sensitivity (CellTiter-Glo)
Format: cell-based
Conditions: KG-1, AML M0; 48 h; read-out: IC50
pIC50: −log10 of the molar value.
Below is a list of entries, each paired with its recorded pIC50 value.

- cpd_smiles: "CC(C)[C@H](N)C(=O)N1CCC[C@H]1B(O)O"
  subject_of_test: "KG-1 cells"
  pIC50: 7.70
- cpd_smiles: "CC(C)(C)[C@H](N)C(=O)N1CCC[C@H]1B(O)O"
  subject_of_test: "KG-1 cells"
  pIC50: 7.46

----------
Test system: NB4 cells
Assay: Cell line drug sensitivity (CellTiter-Glo)
Format: cell-based
Details: NB4, AML/APL M3; 48 h; read-out: IC50
recorded_endpoint: IC50 (nM)

- compound: "CC(C)[C@H](N)C(=O)N1CCC[C@H]1B(O)O [ARI-2054, Valine-boroProline]"
  u: "nM"
  endpoint_result: 100
